The measurements presented in this section are drawn from patent US5707966A.

System: Human plasma
Assay Method Text: Human plasma anticoagulation, prothrombin time (PT)
Type: biochemical
Condition Set: concentration required to double the PT, linear extrapolation
Reported Endpoint: Human Plasma Anticoagulation 2× Clotting time PT (ng/mL)
Numbers only; they are read as ng/mL.

N=C(N)N1CCC(CNC(=O)[C@@H]2CCCN2C(=O)[C@@H](CC2CCCCC2)NCC(=O)O)CC1 | 200

Now consider the entry below.
Sure, the documented Human Plasma Anticoagulation 2× Clotting time PT for N=C(N)c1ccc(CNC(=O)[C@@H]2CCCN2C(=O)[C@@H](CC2CCCCC2)NCCCC(=O)O)cc1 is 197

###

Target Entity: Bovine trypsin (Bos taurus)
Construct: Bovine trypsin is purchased; purchased Worthington Biochemicals, Freehold, N.J
Sequence (P00760 24-246): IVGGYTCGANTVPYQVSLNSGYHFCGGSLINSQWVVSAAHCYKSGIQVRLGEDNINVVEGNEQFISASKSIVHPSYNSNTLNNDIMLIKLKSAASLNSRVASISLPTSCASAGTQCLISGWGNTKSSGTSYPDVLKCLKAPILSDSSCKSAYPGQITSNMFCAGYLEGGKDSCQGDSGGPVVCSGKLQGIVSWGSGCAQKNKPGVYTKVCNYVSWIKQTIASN
Assay Method Text: Kass with trypsin, chromogenic substrate
Type: biochemical
Condition Set: substrate N-Benzoyl-Phe-Val-Arg-p-nitroanilide
Counter-ions that a name gives are not always drawn.
Listed molecules paired with reported Kass Trypsin

Look over these answered cases.
CCS(=O)(=O)N[C@H](Cc1ccccc1)C(=O)N1[C@H](C(=O)NCc2ccc(C(=N)N)cc2)C[C@@H]2CCCC[C@@H]21 (relative stereo) | 110 × 10^6 (L/mole)
CCS(=O)(=O)N[C@H](CC1CCCCC1)C(=O)N1CCC[C@H]1C(=O)NCCCCNC(=N)N [Example 2, EtSO2 -D-Cha-Pro-Agm.HCl] | 1.0 × 10^6 (L/mole)
N=C(N)c1ccc(CCCNC(=O)[C@@H]2CCCN2C(=O)[C@@H]2NCC[C@@H]3CCCC[C@@H]32)cc1 | 0.04 × 10^6 (L/mole)
N=C(N)Nc1cccc(CNC(=O)[C@@H]2CCCN2C(=O)[C@@H]2NCC[C@@H]3CCCC[C@@H]32)c1 | 0.01 × 10^6 (L/mole)
N=C(N)c1cc(F)c(CNC(=O)[C@@H]2CCCN2C(=O)[C@@H](CC2CCCCC2)NCC(=O)O)c(F)c1 | 280 × 10^6 (L/mole)
N=C(N)NCCCCCCNC(=O)[C@@H]1CCCN1C(=O)[C@H](N)Cc1ccccc1 [Example 5, D-Phe-Pro-NH(CH2)6 NHC(NH)NH2.HCl] | 0.00015 × 10^6 (L/mole)
CCS(=O)(=O)N[C@H](Cc1ccccc1)C(=O)N1CCC[C@H]1C(=O)NCc1ccc(NC(=N)N)cc1 | 0.49 × 10^6 (L/mole)
O=C(O)CN[C@H](CC1CCCCC1)C(=O)N1CCC[C@H]1C(=O)NCCCC1CCNCC1 | 0.01 × 10^6 (L/mole)
O=C(O)CN[C@H](CC1CCCCC1)C(=O)N1CCC[C@H]1C(=O)NCC1=CCNCC1 | 0.40 × 10^6 (L/mole)
N=C(N)c1ccc(CNC(=O)[C@@H]2CCCN2C(=O)[C@@H](CC2CCCCC2)NCC(=O)O)cc1 | 250 × 10^6 (L/mole)

Sure, the documented Kass Trypsin for N=C(N)NCCCNC(=O)[C@@H]1CCCN1C(=O)[C@H](N)Cc1ccccc1 [Example 7, D-Phe-Pro-NH(CH2)3 NHC(NH)NH2.HCl] is 0.0081 × 10^6 (L/mole)

Sure, the documented Kass Trypsin for Nc1cc(CCNC(=O)[C@@H]2CCCN2C(=O)[C@@H](CC2CCCCC2)NCC(=O)O)ccn1 is 0.36 × 10^6 (L/mole)

Sure, the documented Kass Trypsin for N=C(N)N1CCC(CCNC(=O)[C@@H]2CCCN2C(=O)[C@@H](CC2CCCCC2)NCC(=O)O)CC1 is 0.24 × 10^6 (L/mole)

Sure, the documented Kass Trypsin for N=C(N)Nc1cccc(CCNC(=O)[C@@H]2CCCN2C(=O)[C@@H]2NCC[C@@H]3CCCC[C@@H]32)c1 is < 0.001 × 10^6 (L/mole)

Sure, the documented Kass Trypsin for N=C(N)c1ccc(CNC(=O)[C@@H]2CCCN2C(=O)[C@@H](CC2CCCCC2)NCC(=O)O)nn1 is 3.7 × 10^6 (L/mole)

Sure, the documented Kass Trypsin for N=C(N)c1ccc(CNC(=O)[C@@H]2C[C@@H]3CCCC[C@@H]3N2C(=O)[C@H]2CCCCN2)cc1 (relative stereo) [Example 20, D-hPro-Ohi-p-NHCH2 C6 H4 C(NH)NH2.3HCl] is 19 × 10^6 (L/mole)

Sure, the documented Kass Trypsin for NCc1ccc(CNC(=O)[C@@H]2CCCN2C(=O)[C@H](N)Cc2ccccc2)cc1 [Example 10, D-Phe-Pro-p-NHCH2 C6 H4 CH2 NH2.HCl] is 0.077 × 10^6 (L/mole)

Sure, the documented Kass Trypsin for N=C(N)NC/C=C/CNC(=O)[C@@H]1CCCN1C(=O)[C@H](N)Cc1ccccc1 (relative stereo) is 0.022 × 10^6 (L/mole)
